B1: TPR 5TU (parent)
chain: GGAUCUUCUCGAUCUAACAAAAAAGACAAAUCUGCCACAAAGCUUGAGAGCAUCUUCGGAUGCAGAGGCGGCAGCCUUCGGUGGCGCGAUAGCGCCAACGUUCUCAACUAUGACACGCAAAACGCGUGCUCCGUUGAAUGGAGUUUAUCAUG

variants of: B1; assay: polymerase ribozyme fitness, log enrichment relative to wild type (log ratio); higher = more active; in vitro selection for triplet polymerase activity
Variants at the floor of the assay were thinned out.
Classify by measured polymerase ribozyme fitness (log ratio): Satisfied if it is equal to or exceeds -2, Not satisfied if it is smaller.

query: Reported polymerase ribozyme fitness (log ratio) at or above -2? A16U A64U A66C C93G
result: Not satisfied

query: Could you verify whether the entry A26G U55G C87A A115U C118U C149G shows polymerase ribozyme fitness (log ratio) of no less than -2?
result: Not satisfied

query: Determine whether measured polymerase ribozyme fitness (log ratio) meets or exceeds -2 for A20U U45A G124A
result: Not satisfied

query: Hi team, for A39G G50A G81C U82C G92C G140A U151C G152C , is the recorded polymerase ribozyme fitness (log ratio) at or above -2?
result: Not satisfied

query: For this variant, is measured polymerase ribozyme fitness (log ratio) -2 or higher? C8U G50U G71C C85G
result: Not satisfied

query: Determine whether this variant has polymerase ribozyme fitness (log ratio) no lower than -2: U9A A12U C85U G88C U148G
result: Not satisfied

query: Kindly determine if polymerase ribozyme fitness (log ratio) recorded for U55A G71A G81C C95G C125U is above or exactly -2.
result: Not satisfied

query: Textbook exercise: given the entry C87U C103G C116U , state whether its polymerase ribozyme fitness (log ratio) is greater than or equal to -2.
result: Satisfied

query: Is polymerase ribozyme fitness (log ratio) at least -2? Consider G84U A89U G126U
result: Satisfied

query: Given the entry C57U G86A A98U , answer whether its polymerase ribozyme fitness (log ratio) meets or surpasses -2.
result: Satisfied

query: Could you tell me if the measured polymerase ribozyme fitness (log ratio) of U4A A21G U55G U101G G152A reaches -2 or more?
result: Not satisfied

query: Textbook exercise: given the entry C85G U144A , state whether its polymerase ribozyme fitness (log ratio) is greater than or equal to -2.
result: Not satisfied

query: Decide: polymerase ribozyme fitness (log ratio) of G59C C96U A106G C132U U145C >= -2?
result: Satisfied

query: Does the reported polymerase ribozyme fitness (log ratio) for A30U G86U fall at or above the -2 mark?
result: Not satisfied

query: Reported polymerase ribozyme fitness (log ratio) at or above -2? A22U C85U
result: Satisfied

query: Please indicate if the recorded polymerase ribozyme fitness (log ratio) for C75G G84U meets or exceeds -2.
result: Not satisfied

query: Is reported polymerase ribozyme fitness (log ratio) greater than or equal to -2 here: U31C C116A
result: Satisfied

query: Confirm if polymerase ribozyme fitness (log ratio) reported for the variant U55A G92A C125A is -2 or above.
result: Not satisfied

query: Quick check, polymerase ribozyme fitness (log ratio) >= -2? U53A G94C C105A C118U
result: Not satisfied

query: Would you say C38A C69A G133C A150C shows polymerase ribozyme fitness (log ratio) at minimum -2?
result: Not satisfied

query: Kindly determine if polymerase ribozyme fitness (log ratio) recorded for C10U A29G A47C U55G A60U C95U U144A U146G is above or exactly -2.
result: Not satisfied

query: Record C38U A39C C95U ; criterion: polymerase ribozyme fitness (log ratio) no lower than -2. Met?
result: Not satisfied

query: Hi team, for A19C A20G G136A A147G , is the recorded polymerase ribozyme fitness (log ratio) at or above -2?
result: Not satisfied

query: Please tell me: is the variant C32G C36U C69U at or over -2 in terms of polymerase ribozyme fitness (log ratio)?
result: Not satisfied

query: Is the recorded value of polymerase ribozyme fitness (log ratio) equal to or greater than -2 for this variant? C57G U82A G83U G141U
result: Satisfied

query: Is polymerase ribozyme fitness (log ratio) for U44A G58C G92C G141U C149A at or above -2?
result: Not satisfied

query: Decide: is the reported value of polymerase ribozyme fitness (log ratio) for A22C G84A C99A G152U equal to or greater than -2?
result: Not satisfied

query: Could you tell me if the measured polymerase ribozyme fitness (log ratio) of C5A U7G C32G A115U U146C reaches -2 or more?
result: Not satisfied

query: Decide: is the reported value of polymerase ribozyme fitness (log ratio) for C51U C93U U109G C116U equal to or greater than -2?
result: Not satisfied

query: State whether the measured polymerase ribozyme fitness (log ratio) reaches -2, counting equality as reaching it, for A29U G92C U102C C116U
result: Not satisfied

query: Check if polymerase ribozyme fitness (log ratio) >= -2 (inclusive). Item: A91G G152A
result: Not satisfied

query: Check this variant for polymerase ribozyme fitness (log ratio) at or above -2: C18U G65U A73G C85U G141C
result: Not satisfied

query: Is polymerase ribozyme fitness (log ratio) for G68A G84U C131G G143U at or above -2?
result: Not satisfied

query: Has A23U A24C A30G A39G C116U a recorded polymerase ribozyme fitness (log ratio) greater than or equal to -2?
result: Not satisfied

query: Say whether A19G C54G G70A A73G G92A A106G C116G A137G shows polymerase ribozyme fitness (log ratio) of -2 or more.
result: Not satisfied

query: Item C38A C93A G136A with polymerase ribozyme fitness (log ratio) of -2 or above?
result: Satisfied

query: Check this variant for polymerase ribozyme fitness (log ratio) at or above -2: C5G A49G U61A C85G
result: Not satisfied

query: Entry A22C C131G : is its polymerase ribozyme fitness (log ratio) no less than -2?
result: Not satisfied

query: Reported polymerase ribozyme fitness (log ratio) reaches at least -2 for A12C A37G G46C C96G A110G C116U U135G ?
result: Not satisfied

query: In plain terms: is recorded polymerase ribozyme fitness (log ratio) at least -2 for G84A G128U ?
result: Not satisfied

query: Decide: is the reported value of polymerase ribozyme fitness (log ratio) for C93U C116U A122U A150C equal to or greater than -2?
result: Not satisfied

query: Would you say C27U A39U A73G C79U C93A shows polymerase ribozyme fitness (log ratio) at minimum -2?
result: Not satisfied

query: Can A89G U139G be said to have polymerase ribozyme fitness (log ratio) at or above -2?
result: Satisfied

query: Check this variant for polymerase ribozyme fitness (log ratio) at or above -2: A3C A12G C87G
result: Not satisfied

query: Does A39C A49G have a reported polymerase ribozyme fitness (log ratio) of at least -2?
result: Not satisfied

query: Record C96U A115C ; criterion: polymerase ribozyme fitness (log ratio) no lower than -2. Met?
result: Not satisfied

query: Please indicate if the recorded polymerase ribozyme fitness (log ratio) for C76A U82G U146A meets or exceeds -2.
result: Satisfied

query: Test whether the variant A17C U53A G71C G83A A91U C93A C108U U127G records polymerase ribozyme fitness (log ratio) of -2 or higher.
result: Not satisfied

query: Is it the case that A29G A60C A89G A110U G143A has polymerase ribozyme fitness (log ratio) reaching or exceeding -2?
result: Not satisfied

query: Check if polymerase ribozyme fitness (log ratio) >= -2 (inclusive). Item: U13A A98U U148G
result: Not satisfied

query: Please tell me: is the variant A41C U101G at or over -2 in terms of polymerase ribozyme fitness (log ratio)?
result: Satisfied

query: Is polymerase ribozyme fitness (log ratio) at least -2? Consider G46C A49U U56A G86A C87A C103G A147U
result: Not satisfied

query: Could you tell me if the measured polymerase ribozyme fitness (log ratio) of C35U U61A G86A C125G G141U reaches -2 or more?
result: Not satisfied

query: Entry U56A C96U G126A : is its polymerase ribozyme fitness (log ratio) no less than -2?
result: Satisfied

query: Decide: polymerase ribozyme fitness (log ratio) of A17U C93A >= -2?
result: Not satisfied

query: Determine whether measured polymerase ribozyme fitness (log ratio) meets or exceeds -2 for A20C C87G G94C C99A A107U C108G
result: Not satisfied

query: // inclusive: polymerase ribozyme fitness (log ratio) at least -2? input: A30U U56A G59A G94U C125A U127A U144A
result: Not satisfied

query: Does polymerase ribozyme fitness (log ratio) meet or surpass -2 for U45G A52U U55A A73U C85U G117A C149A ?
result: Not satisfied

query: In plain terms: is recorded polymerase ribozyme fitness (log ratio) at least -2 for G59A A142G ?
result: Satisfied

query: Check if polymerase ribozyme fitness (log ratio) >= -2 (inclusive). Item: A28C C57U U82C C85G U111G A137U
result: Not satisfied

query: Could you verify whether the entry A120C G141C shows polymerase ribozyme fitness (log ratio) of no less than -2?
result: Satisfied

query: Does polymerase ribozyme fitness (log ratio) meet or surpass -2 for A12U G34C G62C A73U C96U A107G C116G A147G ?
result: Not satisfied

query: Could you please find out whether A23G C54G U56A A142C has polymerase ribozyme fitness (log ratio) that meets -2 or exceeds it?
result: Not satisfied

query: Please indicate if the recorded polymerase ribozyme fitness (log ratio) for A16G U31C C51U U53G C125A G140C meets or exceeds -2.
result: Not satisfied

query: Quick check, polymerase ribozyme fitness (log ratio) >= -2? A12U G84C C93U G140A
result: Not satisfied

query: API: above_or_equal(metric=polymerase ribozyme fitness (log ratio), cutoff=-2) for item U7A
result: Not satisfied

query: Record A40C U55G C85U ; criterion: polymerase ribozyme fitness (log ratio) no lower than -2. Met?
result: Satisfied

query: // inclusive: polymerase ribozyme fitness (log ratio) at least -2? input: C14U G34U A49C G59C C69A A91C U139A A147C
result: Not satisfied

query: Test whether the variant U4G C35G C95G U134A G136U records polymerase ribozyme fitness (log ratio) of -2 or higher.
result: Not satisfied

query: # check: polymerase ribozyme fitness (log ratio) of U90C A91U C114U C118U U144G is greater than or equal to -2
result: Not satisfied

query: Does G92C U101G C131A have a reported polymerase ribozyme fitness (log ratio) of at least -2?
result: Not satisfied

query: State whether the measured polymerase ribozyme fitness (log ratio) reaches -2, counting equality as reaching it, for A22U G86A G92U
result: Satisfied

query: Test whether the variant C99U G117C records polymerase ribozyme fitness (log ratio) of -2 or higher.
result: Satisfied

query: # check: polymerase ribozyme fitness (log ratio) of U53A G81C C85G C108U A138G A147G A150U G152U is greater than or equal to -2
result: Not satisfied

query: Tell me whether polymerase ribozyme fitness (log ratio) is at least -2 here: C18G A28U A29U A66G G67C C96U A106C
result: Not satisfied

query: Is reported polymerase ribozyme fitness (log ratio) greater than or equal to -2 here: C18U A19G
result: Satisfied

query: Tell me whether polymerase ribozyme fitness (log ratio) is at least -2 here: A28G C38A C54G G88C C103A
result: Not satisfied

query: Is polymerase ribozyme fitness (log ratio) at least -2? Consider A20G G83A C129G
result: Not satisfied

query: Hi team, for A20U G59A C93A , is the recorded polymerase ribozyme fitness (log ratio) at or above -2?
result: Not satisfied

query: Dear colleague, could you confirm whether A17U G80C C93A U101G has polymerase ribozyme fitness (log ratio) at or above -2?
result: Not satisfied

query: In plain terms: is recorded polymerase ribozyme fitness (log ratio) at least -2 for G50C C87G ?
result: Not satisfied

query: API: above_or_equal(metric=polymerase ribozyme fitness (log ratio), cutoff=-2) for item A23G C87U U127C
result: Not satisfied

query: Is the recorded value of polymerase ribozyme fitness (log ratio) equal to or greater than -2 for this variant? C54G C108U
result: Not satisfied

query: Does the variant A89U U90C G94U C114U G117U G133U have recorded polymerase ribozyme fitness (log ratio) that is -2 or more?
result: Not satisfied

query: Hello, I need to know if A49G C54A C116G A121U has measured polymerase ribozyme fitness (log ratio) not below -2. Thanks!
result: Not satisfied

query: # bool: polymerase ribozyme fitness (log ratio) of A19C A91U C95A >= -2
result: Not satisfied
